Target: GCN2 kinase (Homo sapiens, UniProt Q9P2K8)
Sequence (Q9P2K8 whole entry): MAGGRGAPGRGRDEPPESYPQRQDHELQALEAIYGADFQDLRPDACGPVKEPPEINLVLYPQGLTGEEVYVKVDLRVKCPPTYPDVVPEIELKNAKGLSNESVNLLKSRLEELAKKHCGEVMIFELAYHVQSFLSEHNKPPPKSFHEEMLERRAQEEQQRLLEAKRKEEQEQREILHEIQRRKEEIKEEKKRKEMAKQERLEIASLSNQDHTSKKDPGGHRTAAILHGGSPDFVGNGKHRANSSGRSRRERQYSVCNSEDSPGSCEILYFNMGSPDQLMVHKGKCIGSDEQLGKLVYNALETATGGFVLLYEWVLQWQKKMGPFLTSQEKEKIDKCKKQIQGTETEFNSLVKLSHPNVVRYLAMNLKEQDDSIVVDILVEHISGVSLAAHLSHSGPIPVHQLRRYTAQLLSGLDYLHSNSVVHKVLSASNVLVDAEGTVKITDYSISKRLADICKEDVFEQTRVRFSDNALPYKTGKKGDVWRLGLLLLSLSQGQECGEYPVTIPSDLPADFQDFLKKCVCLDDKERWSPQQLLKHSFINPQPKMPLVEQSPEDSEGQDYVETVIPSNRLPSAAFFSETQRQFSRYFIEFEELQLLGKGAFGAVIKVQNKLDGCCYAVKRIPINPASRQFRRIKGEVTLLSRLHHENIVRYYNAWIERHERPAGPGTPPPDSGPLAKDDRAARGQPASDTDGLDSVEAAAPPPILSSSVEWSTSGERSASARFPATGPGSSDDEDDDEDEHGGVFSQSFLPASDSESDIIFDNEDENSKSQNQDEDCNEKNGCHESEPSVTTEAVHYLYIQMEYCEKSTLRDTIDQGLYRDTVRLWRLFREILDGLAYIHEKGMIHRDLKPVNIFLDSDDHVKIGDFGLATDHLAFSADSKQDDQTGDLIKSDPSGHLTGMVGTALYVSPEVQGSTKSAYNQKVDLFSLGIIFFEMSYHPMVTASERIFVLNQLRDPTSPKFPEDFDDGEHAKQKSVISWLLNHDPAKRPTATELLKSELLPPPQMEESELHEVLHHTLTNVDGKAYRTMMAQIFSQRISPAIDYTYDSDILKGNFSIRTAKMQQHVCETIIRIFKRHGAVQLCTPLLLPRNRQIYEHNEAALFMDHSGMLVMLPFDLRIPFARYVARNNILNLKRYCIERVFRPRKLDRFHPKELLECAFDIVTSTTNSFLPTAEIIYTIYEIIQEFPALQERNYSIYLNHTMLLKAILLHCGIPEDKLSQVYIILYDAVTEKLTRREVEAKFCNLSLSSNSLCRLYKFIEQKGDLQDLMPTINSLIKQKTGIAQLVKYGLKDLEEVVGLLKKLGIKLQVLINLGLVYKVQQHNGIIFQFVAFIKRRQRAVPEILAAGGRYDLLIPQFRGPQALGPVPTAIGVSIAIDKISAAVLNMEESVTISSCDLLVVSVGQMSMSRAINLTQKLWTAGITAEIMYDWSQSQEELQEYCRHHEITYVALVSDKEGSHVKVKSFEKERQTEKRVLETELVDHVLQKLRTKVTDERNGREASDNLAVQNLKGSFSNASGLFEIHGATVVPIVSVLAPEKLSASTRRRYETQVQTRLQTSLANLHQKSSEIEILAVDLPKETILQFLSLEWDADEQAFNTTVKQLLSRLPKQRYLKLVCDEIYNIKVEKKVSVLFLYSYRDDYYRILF
Assay: GCN2 enzyme inhibition assay (Transcreener ADP2 fluorescence polarization)
Assay type: biochemical
Settings: compounds of Formula II; 280 μM ATP, 4 nM GCN2 kinase
pKi: −log10 of the molar value.
MEASURED METRIC: pKi

{"COMPOUND": "CCC1CC(N=S(C)(C)=O)CN(c2cc(-c3cnc4ccc(C(F)F)nn34)ncn2)C1 (single isomer, unassigned) [II-651]", "pKi": "6.00 to 8.00"}
{"COMPOUND": "CC1C(CO)OCCN1c1cc(-c2cnc3ccc(C(F)F)nn23)ncn1 (centres unmarked) [II-342]", "pKi": "6.00 to 8.00"}
{"COMPOUND": "C[C@H]1COCCN1c1cc(-c2cnc3ccc(C(F)F)nn23)ncn1", "pKi": "6.00 to 8.00"}

Which pKi value belongs to CC1C(CNS(C)(=O)=O)NCCN1c1cc(-c2cnc3ccc(C(F)F)nn23)ncn1 (centres unmarked) ?
> 8.00

Request: CS(C)(=O)=NC1CC(C(F)(F)F)CN(c2cc(-c3cnc4ccc(C(F)F)nn34)ncn2)C1 (centres unmarked) [II-654]
6.00 to 8.00

Request: "O=S(=O)(N[C@H]1CCCN(c2cc(-c3cnc4ccc(C(F)F)nn34)ncn2)C1)C1COC1"
6.00 to 8.00

Request: "CS(=O)(=O)NC[C@H]1CN(c2cc(-c3cnc4ccc(C(F)F)nn34)ncn2)C[C@H](C(F)(F)F)O1"
6.00 to 8.00

Request: CS(=O)(=O)NC1CCC2(CCN(c3cc(-c4cnc5ccc(C(F)F)nn45)ncn3)C2)C1 (single isomer, unassigned) [II-95]
6.00 to 8.00

* * *

Biological target: GCN2 kinase (Homo sapiens, UniProt Q9P2K8)
Test: GCN2 enzyme inhibition assay (Transcreener ADP2 fluorescence polarization)
Type: biochemical
Settings: compounds of Formula II; 280 μM ATP, 4 nM GCN2 kinase
pKi: −log10 of the molar value.
MEASURED METRIC: pKi

Take a look at these entries with their results.
{"MOLECULE": "CS(C)(=O)=NC[C@@H]1CN(c2cc(-c3cnc4ccc(C(F)F)nn34)ncn2)CCO1 [II-10]", "pKi": "6.00 to 8.00"}
{"MOLECULE": "N#CC1CCCN(c2cc(-c3cnc4ccc(C(F)F)nn34)ncn2)C1 (stereo not shown) [II-532]", "pKi": "6.00 to 8.00"}
{"MOLECULE": "FC(F)c1ccc2ncc(-c3cc(N4CCOC5CC54)ncn3)n2n1 (stereo not shown) [II-301]", "pKi": "6.00 to 8.00"}
{"MOLECULE": "NC(=O)c1ccc2ncc(-c3cc(N4CCN5C(=O)CCCC5C4)ncn3)n2n1 (stereo not shown) [II-727]", "pKi": "6.00 to 8.00"}

Which pKi value belongs to O=S1(=O)CCN(c2cc(-c3cnc4ccc(C(F)F)nn34)ncn2)CC1 [II-295] ?
< 6.00

Request: CS(=O)(=O)NCC1CCN(c2cc(-c3cnc4ccc(C(F)F)nn34)ccn2)C1 (stereo not shown) [II-123]
6.00 to 8.00

Request: CN(C)CC(=O)N(CC1CCCN(c2cc(-c3cnc4ccc(C(F)F)nn34)ncn2)C1)S(C)(=O)=O (stereo not shown) [II-456]
6.00 to 8.00

Request: CS(=O)(=O)C1CCN(c2cc(-c3cnc4ccc(C(F)F)nn34)ncn2)C1 (stereo not shown) [II-395]
6.00 to 8.00

Request: CC1CN(c2cc(-c3cnc4ccc(C(F)(F)F)nn34)ncn2)CC(CNS(C)(=O)=O)C1(F)F (stereo not shown) [II-294]
6.00 to 8.00

Request: CS(=N)(=O)CC1CCCN(c2cc(-c3cnc4ccc(C(F)F)nn34)ccn2)C1 (stereo not shown) [II-138]
6.00 to 8.00

Request: CS(=O)(=O)NCC1CN(c2cc(-c3cnc4ccc(C(F)F)nn34)ncn2)CCC1(F)F (single isomer, unassigned) [II-1]
6.00 to 8.00

Request: O=C(NCCO)N1CCCC(c2cc(-c3cnc4ccc(C(F)F)nn34)ncn2)C1 (stereo not shown) [II-178]
6.00 to 8.00

Request: CS(=O)(=O)N1CC2CCCN(c3cc(-c4cnc5ccc(C(F)F)nn45)ncn3)C2C1 (stereo not shown) [II-320]
6.00 to 8.00

Request: CS(=O)(=O)NCC1COCCN(c2cc(-c3cnc4ccc(C(F)F)nn34)ncn2)C1 (stereo not shown) [II-481]
6.00 to 8.00

Request: CC(C)C(C)(O)C1CCCN(c2cc(-c3cnc4ccc(C(F)F)nn34)ncn2)C1 (stereo not shown) [II-621]
6.00 to 8.00

Request: CC1CN(c2cc(-c3cnc4ccc(C(F)F)nn34)ncn2)CC(CNS(C)(=O)=O)C1(F)F (stereo not shown) [II-45]
> 8.00

* * *

Molecular target: GCN2 kinase (Homo sapiens)
Assay: GCN2 enzyme inhibition assay (Transcreener ADP2 fluorescence polarization)
Type: biochemical
Details: compounds of Formula V; 280 μM ATP, 4 nM GCN2 kinase
MEASURED METRIC: Ki

{"COMPOUND": "NC(=O)[C@H]1CCCN(c2ccnc(-c3cnc4sc(C(F)(F)F)cn34)n2)C1", "TARGET OR SYSTEM": "GCN2 kinase (Homo sapiens)", "REPORTED": "< 10 nM"}
{"COMPOUND": "CC1CN(c2ccnc(-c3cnc4sc(C(F)(F)F)cn34)n2)C(C)C(c2cn[nH]c2)N1 (single isomer, unassigned) [Compound V-11]", "TARGET OR SYSTEM": "GCN2 kinase (Homo sapiens)", "REPORTED": "< 10 nM"}
{"COMPOUND": "CC1CN(c2ccnc(-c3cnc4sc(C(F)F)cn34)n2)CC(CNS(C)(=O)=O)C1(F)F (stereo not drawn)", "TARGET OR SYSTEM": "GCN2 kinase (Homo sapiens)", "REPORTED": "10 to 100 nM"}
{"COMPOUND": "FC(F)(F)c1cn2c(-c3nccc(N4CCC(c5cn[nH]c5)C4)n3)cnc2s1 (stereo not drawn)", "TARGET OR SYSTEM": "GCN2 kinase (Homo sapiens)", "REPORTED": "10 to 100 nM"}
{"COMPOUND": "CP(C)(=O)C1CC(c2cn[nH]c2)CN(c2ccnc(-c3cnc4sc(C(F)(F)F)cn34)n2)C1 (racemic) [Compound V-6]", "TARGET OR SYSTEM": "GCN2 kinase (Homo sapiens)", "REPORTED": "100 to 1000 nM"}

Okay, next one:
Which Ki value belongs to CC1CN(c2ccnc(-c3cnc4sc(C(F)(F)F)cn34)n2)C(C)C(c2cn[nH]c2)N1 (stereo not drawn) [Compound V-13] ?
< 10 nM

* * *

Target: intracellular GCN2 (phosphorylation of the GCN2 substrate eIF2α) (Homo sapiens)
Assay: GCN2 cellular inhibition assay (AlphaScreen SureFire P-eIF2α Ser51, borrelidin-treated U2OS cells)
Assay type: cell-based
Conditions: compounds of Formula II; biomarker assay, phosphorylated eIF2α Ser51 in borrelidin-treated U2OS cells
Entries and their measured IC50 follow.

Take a look at these entries with their results.
{"COMPOUND": "CC1(C)CN(c2cc(-c3cnc4ccc(C(F)F)nn34)ncn2)C[C@H](CNS(C)(=O)=O)O1", "TARGET OR SYSTEM": "intracellular GCN2 (phosphorylation of the GCN2 substrate eIF2α) (Homo sapiens)", "REPORTED": "0.5 to 5 µM"}
{"COMPOUND": "CC1CC(CNS(C)(=O)=O)CN(c2cc(-c3cnc4ccc(C(F)F)nn34)ncn2)C1 (single isomer, unassigned) [II-436]", "TARGET OR SYSTEM": "intracellular GCN2 (phosphorylation of the GCN2 substrate eIF2α) (Homo sapiens)", "REPORTED": "0.5 to 5 µM"}

Hi! What's the reported IC50 for CS(=O)(=O)CC1CCCN(c2cc(-c3cnc4ccc(C(F)(F)F)nn34)ccn2)C1 (stereo not shown) on intracellular GCN2 (phosphorylation of the GCN2 substrate eIF2α) (Homo sapiens)?
> 5 µM

* * *

Target: intracellular GCN2 (phosphorylation of the GCN2 substrate eIF2α) (Homo sapiens, UniProt Q9P2K8)
Sequence (Q9P2K8 whole entry): as above
Test: GCN2 cellular inhibition assay (AlphaScreen SureFire P-eIF2α Ser51, borrelidin-treated U2OS cells)
Type: cell-based
Settings: compounds of Formula II; biomarker assay, phosphorylated eIF2α Ser51 in borrelidin-treated U2OS cells
MEASURED METRIC: IC50

{"COMPOUND": "COCC(=O)N1CCN(c2cc(-c3cnc4ccc(C(F)F)nn34)ccn2)CC1 [II-170]", "IC50": "0.5 to 5 µM"}

Which IC50 value belongs to OCCC1CN(c2cc(-c3cnc4ccc(C(F)(F)F)nn34)ncn2)CCO1 (centres unmarked) [II-500] ?
> 5 µM

Request: Cc1[nH]ncc1[C@H]1CN(c2cc(-c3cnc4ccc(C(F)(F)F)nn34)ncn2)C[C@H](C)O1 [II-765]
> 5 µM

Request: CS(=O)(=O)N1CCC2(CCN2c2cncc(-c3cnc4ccc(C(F)F)nn34)c2)CC1 [II-42]
> 5 µM

Request: CC1C(CNS(C)(=O)=O)C(F)(F)CCN1c1cc(-c2cnc3ccc(C(F)F)nn23)ncn1 (centres unmarked) [II-431]
< 0.5 µM
